TEST PROTOCOL: NCI Yeast Anticancer Drug Screen. Data for the bub3 strain (AID 167)
CONDITION DESCRIPTION: S. cerevisiae bub3 mutant strain, at 50.0 µM
The panel holds about 79,000 compounds, 15% with a hit somewhere; the sample as a whole holds those more often. Calls of active or inactive are those of the source. Rule as the data show it: active = growth inhibition above about 70%; inactive = the rest.
Outcome codes: active, inactive

>>> print(df.to_string())
                                    compound  assigned_class
 0               CCOC(=O)c1c[nH]c2ccccc2c1=O        inactive
 1    CCC[n+]1ccc(CCS(=O)(=O)c2ccc(N)cc2)cc1        inactive
 2                 CC(=O)Oc1cc(Cl)c(Cl)cc1Cl        inactive
 3  CN1C/C(=C\c2ccc(N(C)C)cc2)C(=O)/C(=C/c2ccc(N(C)C)cc2)C1        inactive
 4  N=C1N(S(=O)(=O)c2ccccc2)[C@@H](Cc2ccccc2)[C@H](c2ccccc2)C1(c1ccccc1)c1ccccc1        inactive
 5                         NC(=O)NCSCNC(N)=O        inactive
 6  O=S(=O)(SSS(=O)(=O)c1ccc(Cl)c(Cl)c1)c1ccc(Cl)c(Cl)c1        inactive
 7  O=C(NC(COC(=O)c1ccccc1)COC(=O)c1ccccc1)c1ccccc1        inactive
 8       C/C(=C1/N=C(c2ccccc2)OC1=O)c1ccccc1          active
 9    CCN(CC)C(=O)C1CCN(CCC(=O)Nc2ccccc2)CC1        inactive
10                       Cn1ccc2c3ccsc3ccc21        inactive
11  CCOC(=O)/C(O)=C\c1cc(Br)c(OC)cc1[N+](=O)[O-]        inactive
12  CS(=O)(=O)C1CCCCC1SC#N (stereo unspecified)        inactive
13            O=c1cc(-c2ccccc2)c2ccccc2[nH]1        inactive
14         CCOc1ccccc1NC(=S)NC(=O)CCc1ccccc1        inactive
15    CS/N=C(/c1ccc(/C(=N/SC)N(C)C)cc1)N(C)C        inactive
16  N#Cc1cccc(C2SCc3nc4ccccc4n32)c1 (stereo unspecified)        inactive
17  CC1(C)C2CCC13CS(=O)(=O)N1O[C@]13C(=O)O2 (stereo partly specified)        inactive
18  COc1ccc(CC2Cc3ccccc3CC(=O)N2)cc1OC (stereo unspecified)        inactive
19             CSc1cccc(NC(=O)/C=C/C(=O)O)c1        inactive
20                O=C(c1ccccc1)c1cnc2ccccn12        inactive
21  COc1cccc(/C=N/N(C)c2c([N+](=O)[O-])cc(C(F)(F)F)cc2[N+](=O)[O-])c1O        inactive
22  CCCC(Sc1nc(N)nc2nc[nH]c12)C(=O)O (stereo unspecified)        inactive
23  CCCCOC(=O)c1ccc(NC(=O)Nc2cc([N+](=O)[O-])ccc2F)cc1        inactive
24            CN(CC(=O)c1ccc(I)cc1)Cc1ccccc1        inactive
25       O=c1cc(Nc2ccc(Cl)cc2)[nH]c(=O)[nH]1        inactive
26  Nc1c(-c2nc3ccccc3s2)[n+]([O-])c2ccccc2[n+]1[O-]        inactive
27                           S=c1nc[nH][nH]1        inactive
28                        CC(=O)c1c[nH]cc1CO        inactive
29                 O=C(O)CC1(c2ccccc2)CCCCC1        inactive
30  O=CC(CO)CC(C=O)n1cnc2c(=O)[nH]cnc21 (stereo unspecified)        inactive
